Experiment: Solubility of PAP prodrugs in 0.1N HCl
Assay type: physicochemical
Details: simulated gastric fluid
Measured quantity: solubility

Task: Which measured solubility value corresponds to CCOC(=O)Nc1ccc(/N=N/c2ccccc2)c(N)n1 ?
Output: < 100 µg/mL

Task: Can you look up the measured solubility of NCC(=O)Nc1ccc(/N=N/c2ccccc2)c(N)n1 for me?
Output: > 2000 µg/mL

Task: Given Nc1nc(NC(=O)OCc2ccccc2)ccc1/N=N/c1ccccc1 , state its recorded solubility.
Output: < 100 µg/mL

Task: Which measured solubility value corresponds to C[C@H](N)C(=O)Nc1ccc(/N=N/c2ccccc2)c(N)n1 ?
Output: 2000 µg/mL

Task: Give the measured solubility of CC(C)[C@H](N)C(=O)Nc1ccc(/N=N/c2ccccc2)c(N)n1 .
Output: > 2500 µg/mL

Task: Please look up its solubility: NCCCC[C@H](N)C(=O)Nc1ccc(/N=N/c2ccccc2)c(N)n1
Output: > 2500 µg/mL

Task: Value lookup for solubility; key = Nc1nc(NC(=O)[C@@H](N)Cc2c[nH]cn2)ccc1/N=N/c1ccccc1
Output: > 10000 µg/mL

Task: Please give the measured solubility for this compound: CSCC[C@H](N)C(=O)Nc1ccc(/N=N/c2ccccc2)c(N)n1
Output: 1000 µg/mL

Task: Reported solubility for Nc1nc(NC(=O)[C@@H](N)Cc2c[nH]c3ccccc23)ccc1/N=N/c1ccccc1 : what is it?
Output: 500 µg/mL

Task: Request the reported solubility associated with CC(C)COC(=O)Nc1ccc(/N=N/c2ccccc2)c(N)n1
Output: < 100 µg/mL
